Data origin, for the record: patent US20250018046A1

# SUBJECT_OF_TEST: IRAK4 (Homo sapiens, UniProt Q9NWZ3)
# Construct: knocking-in a HiBiT fusion tag into the C-terminal of the IRAK4 gene in 293T cells; host or cells: 293T cells, knock-in of HiBiT at the endogenous IRAK4 locus
# Sequence (Q9NWZ3 whole entry, the tested form may be a part): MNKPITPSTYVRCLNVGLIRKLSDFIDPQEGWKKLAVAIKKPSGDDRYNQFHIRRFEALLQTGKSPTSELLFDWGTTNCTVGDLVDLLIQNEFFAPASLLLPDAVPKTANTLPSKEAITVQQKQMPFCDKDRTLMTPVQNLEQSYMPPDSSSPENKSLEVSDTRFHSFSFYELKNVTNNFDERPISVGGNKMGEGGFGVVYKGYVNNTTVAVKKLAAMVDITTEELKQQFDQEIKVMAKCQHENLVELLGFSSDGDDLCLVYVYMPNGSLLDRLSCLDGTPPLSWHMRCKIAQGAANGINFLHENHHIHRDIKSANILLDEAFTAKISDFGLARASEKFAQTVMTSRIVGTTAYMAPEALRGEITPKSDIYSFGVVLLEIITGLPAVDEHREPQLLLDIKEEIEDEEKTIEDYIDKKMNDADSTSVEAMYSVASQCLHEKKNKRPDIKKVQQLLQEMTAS
# ASSAY_INFO: IRAK4 degradation assay using the HiBiT Method
# Format: cell-based
# CONDITIONS_USED: 293T cells expressing HiBiT-tagged IRAK4; 6-hour incubation; Nano-Glo HiBiT Lytic Assay luminescence
OUTCOME_MEASURE: DC50

In the examples that follow, each entry is paired with its recorded DC50.
1. CC(C)Oc1cc2nc([C@H]3CC[C@H](CN4CCC(c5cccc6c5n(C)c(=O)n6C5CCC(=O)NC5=O)CC4)CC3)cn2cc1NC(=O)c1cccc(C(F)(F)F)n1 (stereo partly drawn) [Example 37]    10 to 100 nM
2. CC(C)Oc1cc2nc(C3CCN(CCC(=O)N4CCN(c5ccc(OC6CCC(=O)NC6=O)cc5)CC4)CC3)cn2cc1NC(=O)c1cccc(C(F)(F)F)n1 (stereo not drawn) [Example 33]    100 to 500 nM
3. CC(C)Oc1cc2nc(C3CCN(C(=O)CN4CCC(c5ccc(NC6CCC(=O)NC6=O)cc5)CC4)CC3)cn2cc1NC(=O)c1cccc(C(F)(F)F)n1 (stereo not drawn) [Example 9]    10 to 100 nM
4. CC(C)Oc1cc2nc([C@H]3CC[C@H](CN(C)C4CCN(c5cccc6c5n(C)c(=O)n6C5CCC(=O)NC5=O)CC4)CC3)cn2cc1NC(=O)c1cccc(C(F)(F)F)n1 (stereo partly drawn) [Example 42]    100 to 500 nM
5. CC(C)Oc1cc2nc(C3CCN(C(=O)CN4CCC(c5ccc(OC6CCC(=O)NC6=O)cc5)CC4)CC3)cn2cc1NC(=O)c1cccc(C(F)(F)F)n1 (stereo not drawn) [Example 1]    100 to 500 nM

Need DC50, item CC(C)Oc1cc2nc(C3CCN(CC(=O)N4CCC(Oc5ccc(NC6CCC(=O)NC6=O)cc5)CC4)CC3)cn2cc1NC(=O)c1cccc(C(F)(F)F)n1 (stereo not drawn) [Example 86]
100 to 500 nM
